Here the recorded PBM binding z-score is given for each entry.
# Test system: LXRb homodimer (NR concentration 270 nM)
# assay info: PBM binding z-score (relative to random genomic background probes); higher = stronger binding; sequences stand for … in GC…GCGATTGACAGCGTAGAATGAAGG
Would you mind answering with just the numeric figure?

1) TCTGCTAGGTCATCGATGGTCAGCTAATCTGCTA -0.256

Measured PBM binding z-score for this entry TAGCCTAGGTCATGCGGCCCAGTATAGTGTCGGC on LXRb homodimer (NR concentration 270 nM): -0.105

Measured PBM binding z-score for this entry AGAATGAGGTCAAGATCAGGGAAACAGAATACAT on LXRb homodimer (NR concentration 270 nM): 1.7

Measured PBM binding z-score for this entry CCTGCTAGGTCATGGTCAGCGAATCTACAGTATG on LXRb homodimer (NR concentration 270 nM): -0.255

Measured PBM binding z-score for this entry CCTACTGGGCCAAAGAGGTCATTGATGCCGATAA on LXRb homodimer (NR concentration 270 nM): -0.243

Measured PBM binding z-score for this entry GCTTACGGGTCAAAGGTCATAGCATGAATAGAAT on LXRb homodimer (NR concentration 270 nM): 1.77

---

# Test system: RXRa DBDmut IVT, anti-RXR (DBD mutation: RXRa K156A/R161A, NR concentration 90 nM)
# assay info: PBM binding z-score (relative to random genomic background probes); higher = stronger binding; sequences stand for … in GC…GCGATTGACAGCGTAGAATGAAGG
readout name: PBM binding z-score
Would you mind answering with just the numeric figure?

1. AATACAAGGTCATCGTAGGCCAGAGTACGCACAG 3.94
2. CGTCCAAAGTCAAAGGTCAGTGAAGAGATGACGG 0.813
3. TCTTGTAGATCAATAGAAGTTAAGAAAGTGCGCT 1.24
4. AGAATGAGGTTACCAAAGGTCAGGGAAACGCTTG 1.72
5. ATCGAAAGGTCCAAGGTGAGTATACCCACCCGAA 0.0908

Read the next record carefully.
Recorded PBM binding z-score (sequence TCTCGGAGGACACCAAAGGTCAGAGCTCGACATC ): 0.814

---

# Test system: PXR:RXRa (NR concentration 270 nM, RXRa partner concentration 90 nM)
# assay info: PBM binding z-score (relative to random genomic background probes); higher = stronger binding; sequences stand for … in GC…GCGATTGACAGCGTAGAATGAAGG
Please note: satisfied applies when PBM binding z-score is 4 or greater, and not satisfied applies otherwise.

1) GCTTACAGGTCAAAGGTTATAGCATGAATAGAAT satisfied
2) TCGCCTAGGTCATGGGCCAGTATACCACGCGAAC not satisfied
3) CGTCCAAGGTCATAGGAGGTCAATGAAGACAGAT satisfied
4) CGTCAAAGGTCAATGCTAGGTCAGTGAAAGCATT satisfied
5) CCTTAGGGGTCAAGGTTATAGCACGGGTGGTACG satisfied
6) TAGCCTAGGTCATGCGGGACAGTATAGTGTCGGC not satisfied
7) ACGCGGAGGACAAAGGTCAGAGCTACGCCAGTGA not satisfied
8) CGTCCAAGGTCATTGGAGGTCAGTGAAGACAGAT satisfied
9) CGAACGAGGTCAAAGGACAGTGAAAGGCGACGTA satisfied
10) AGTCAAAGGTCATCTAGGTAACGTAAGATATGCT satisfied

Evaluate TAGCCTAGGTCATTCAGGGGCCAGCATAGAAAGC : PBM binding z-score at minimum 4?
not satisfied

Evaluate TCTGCTAGGTCAACGTTGGTCAGCTAATCTGCTA : PBM binding z-score at minimum 4?
not satisfied

Evaluate CGTCCAAGGTCACGGTCAGTGAAAGAGACTCGAA : PBM binding z-score at minimum 4?
satisfied

Evaluate AGAATGAGGTCACCAAAGATCAGGGAAACGCTTG : PBM binding z-score at minimum 4?
satisfied

Evaluate TACCCTAGGTCATGGGCCAGTATACCACGCGAAC : PBM binding z-score at minimum 4?
not satisfied

Evaluate CGAACTAGGTCATCCAGGACCGTGAATACATTGA : PBM binding z-score at minimum 4?
not satisfied

Evaluate ACTCGGATGACAAAGGTCAGAGCTACGCCAGTGA : PBM binding z-score at minimum 4?
not satisfied

Evaluate TGTCAAAGTTCAAAGGTGACGTAAGTATCCACAC : PBM binding z-score at minimum 4?
satisfied

Evaluate TACCCTAGGTCATTGGGCCAGTATAGTACGCATC : PBM binding z-score at minimum 4?
not satisfied

Evaluate CCTTACGGGTCACTCCAGGTCATAGCATCGGAGT : PBM binding z-score at minimum 4?
satisfied

Evaluate CGAACAAGGTCATCCAGGACAGTGAATACATTGA : PBM binding z-score at minimum 4?
satisfied

Evaluate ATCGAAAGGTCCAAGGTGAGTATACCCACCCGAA : PBM binding z-score at minimum 4?
not satisfied

Evaluate CAAAATAGGTCAAAGGTCAAAGTCGAGCCAACCA : PBM binding z-score at minimum 4?
satisfied

Evaluate CCTACGGGGCCACGAAAGGTCATTGATTCAGTGA : PBM binding z-score at minimum 4?
satisfied

Evaluate TCTAGTTGGTCTAAGGTCACACACTCGAAATGCG : PBM binding z-score at minimum 4?
satisfied

---

# Tested on: PXR homodimer (NR concentration 270 nM)
# assay info: PBM binding z-score (relative to random genomic background probes); higher = stronger binding; sequences stand for … in GC…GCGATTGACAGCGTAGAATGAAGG
readout name: PBM binding z-score
Would you mind answering with just the numeric figure?

// solved cases for PBM binding z-score follow
1. CGTCAAAGGTCAAGGTAACGTAACAGAAAGCAGC 0.602
2. CAAACAAGGTCAAAGGTCAAAGTCGAGCCAACCA 4.12
3. CCTACTGGGCCTAAGGTCATTGATTCCAATGCTC 1.98

Measured PBM binding z-score for this entry CGTCAAAGTTCAACTGAGGTAACGTAAAGCACGC on PXR homodimer (NR concentration 270 nM): 4.5

Measured PBM binding z-score for this entry TCTAGTGGGTCAAAGGTCACACACTCGAAATGCG on PXR homodimer (NR concentration 270 nM): 1.74

Measured PBM binding z-score for this entry CGAACTAGGTCGCCAGGACAGTGAAGAGGTTGGA on PXR homodimer (NR concentration 270 nM): -0.264

---

# System: PPARg:RXRa IVT, anti-PPARg (NR concentration 270 nM, RXRa partner concentration 90 nM)
# assay info: PBM binding z-score (relative to random genomic background probes); higher = stronger binding; sequences stand for … in GC…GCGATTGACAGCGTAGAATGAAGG
Please note: met applies when PBM binding z-score is 3 or greater, and not met applies otherwise.

1) ATCAAAAGGTCGAGGTGAGTATAGAGAAAGGGAA not met

Evaluate CGAACAAGGTCACCAGGACAGTGAAGAGGTTGGA : PBM binding z-score at minimum 3?
met

Evaluate CAAAATAGGTCACGAAAGGTCAAAGTCGAATGAC : PBM binding z-score at minimum 3?
met

Evaluate CCTACTGGGTCACGAAAGGTCATTGATTCAGTGA : PBM binding z-score at minimum 3?
met

Evaluate ACTTAGGGGTCAACGAGGTTATAGCACGCGTATA : PBM binding z-score at minimum 3?
met

Evaluate CCAGACAGGTGAGAAGGTAACTCAGCCTCGATTA : PBM binding z-score at minimum 3?
not met

Evaluate GCTAGTTGGTCAGTAAAAGGTGACACACCGGTCG : PBM binding z-score at minimum 3?
not met

Evaluate AAAACAGGGTCATCGTAGGCCAGAGTACGCACAG : PBM binding z-score at minimum 3?
met

Evaluate CCTACTGGGCCGTTCAGAGGTCATTGATCATATG : PBM binding z-score at minimum 3?
not met

Evaluate CAAACCAGGTCAAGAGGTCAAAGTCCGCTTCCCG : PBM binding z-score at minimum 3?
met

Evaluate CGTCAAAGTTCAACTAAGGTTACGTAAAGCACGC : PBM binding z-score at minimum 3?
not met

Evaluate ATATGTAGGTTATCTGGGGTCATTCAGACTAGGC : PBM binding z-score at minimum 3?
met

Evaluate CGAACTAGGTCTAAGGACAGTGAAAGGCGACGTA : PBM binding z-score at minimum 3?
not met

Evaluate CAAACGAGGTCAAGAGGTCAAAGTCCGCTTCCCG : PBM binding z-score at minimum 3?
met

Evaluate CGTCAAAGTTCAACTAAGGTCACGTAAAGCACGC : PBM binding z-score at minimum 3?
met

---

# Test system: PPARg:RXRa 90nM:30nM, anti-RXR (NR concentration 90 nM, RXRa partner concentration 30 nM)
# assay info: PBM binding z-score (relative to random genomic background probes); higher = stronger binding; sequences stand for … in GC…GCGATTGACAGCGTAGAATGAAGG
Here the recorded PBM binding z-score is given for each entry.
Would you mind answering with just the numeric figure?

1) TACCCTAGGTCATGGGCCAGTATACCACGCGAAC 3.13
2) CCTACTGGGCCATTCAGAGGTCAATGATCATATG 2.2
3) CCTACTGGGCCACTAAAGGTCATTGATTCAGTGA 4.15

Recorded PBM binding z-score (sequence CAAACTAGGTCACAAAAGGTCAAAGTCGAATGAC ): 8.43

Recorded PBM binding z-score (sequence AATACAGGGTAACTAGGCCAGAGTAGGTACGAAT ): 1.88

Recorded PBM binding z-score (sequence CAAACTAGGTCAAGAGGTCAAAGTTCGCTTCCCG ): 10.1
